Reported values of IC50 for individual entries
measured.target: GSK3β (h) (Homo sapiens, UniProt P49841)
Sequence (P49841 whole entry): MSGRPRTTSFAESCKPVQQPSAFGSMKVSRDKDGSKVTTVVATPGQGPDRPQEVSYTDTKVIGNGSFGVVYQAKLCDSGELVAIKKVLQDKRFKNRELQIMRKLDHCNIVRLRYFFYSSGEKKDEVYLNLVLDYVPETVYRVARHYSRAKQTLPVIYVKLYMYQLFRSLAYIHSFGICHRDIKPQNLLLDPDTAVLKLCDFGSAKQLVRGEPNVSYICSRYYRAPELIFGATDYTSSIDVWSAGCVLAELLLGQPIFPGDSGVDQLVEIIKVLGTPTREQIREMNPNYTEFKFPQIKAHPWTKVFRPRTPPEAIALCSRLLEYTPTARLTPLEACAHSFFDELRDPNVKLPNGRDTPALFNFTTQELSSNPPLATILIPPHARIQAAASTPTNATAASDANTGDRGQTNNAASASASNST
assay: GSK-3β human kinase inhibition, SPA
Type: biochemical
experimental.context: read-out: GSK3b pIC50 (converted)
Experimental: The in vitro inhibition of a panel of kinases was assessed using either the scintillation proximity assay (SPA) as described by Cook, N. D. et al., Advances in Experimental Medicine and Biology (1991), 36; p. 525-528. In the SPA technology the activity of the kinase of interest is measured using an appropriate biotinylated substrate that is incubated with the aforementioned kinase protein in the presence of (^33P) radiolabeled ATP. […] The scintillation intensity is detected by imaging on Leadseeker. […]

{"compound": "O=C1NCc2cccc(c2)-c2ccnc(n2)Nc2ccc(cc2)CN[C@H]1CO [Compound 191]", "rel": "=", "IC50, µM": 7.94}
{"compound": "COc1cc2cc(c1)Nc1nccc(n1)-c1ccc(cc1)CN(C)CCNC(=O)C1CCN(CC1)C2 [Compound 62]", "rel": "=", "IC50, µM": 1.91}
{"compound": "COc1ccc2cc1CN(C)CCNC(=O)C1CCN(CC1)Cc1cc(cc(NC(C)C)c1)Nc1nccc-2n1 [Compound 75]", "rel": ">", "IC50, µM": 10}
{"compound": "C[C@H]1NCc2cc(ccc2N2CCOCC2)Nc2nccc(n2)-c2cccc(c2)OCCCNC1=O [Compound 87]", "rel": "=", "IC50, µM": 0.214}

---

measured.target: CDK4/CyclinD1 (h) (Homo sapiens, UniProt P11802)
Sequence (P11802 whole entry): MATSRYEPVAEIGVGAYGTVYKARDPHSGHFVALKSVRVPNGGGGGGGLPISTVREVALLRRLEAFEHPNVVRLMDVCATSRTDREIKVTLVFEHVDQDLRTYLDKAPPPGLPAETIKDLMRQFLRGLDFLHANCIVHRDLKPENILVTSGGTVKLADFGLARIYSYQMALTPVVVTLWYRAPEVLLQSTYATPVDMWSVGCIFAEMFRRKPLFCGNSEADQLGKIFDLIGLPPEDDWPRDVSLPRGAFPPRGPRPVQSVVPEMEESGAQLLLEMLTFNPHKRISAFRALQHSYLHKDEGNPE
Sequence (P24385 whole entry partner): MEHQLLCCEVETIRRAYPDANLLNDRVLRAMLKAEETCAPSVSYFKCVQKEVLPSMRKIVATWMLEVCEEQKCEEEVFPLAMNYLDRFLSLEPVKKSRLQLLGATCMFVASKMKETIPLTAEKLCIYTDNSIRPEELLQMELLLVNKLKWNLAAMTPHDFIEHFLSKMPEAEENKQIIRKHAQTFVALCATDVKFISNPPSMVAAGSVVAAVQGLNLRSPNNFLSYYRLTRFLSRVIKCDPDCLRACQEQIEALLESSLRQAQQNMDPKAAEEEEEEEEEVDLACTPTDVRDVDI
assay: CDK4/CyclinD1 human kinase inhibition, SPA with GST-pRb substrate
Format: biochemical
experimental.context: read-out: CDK4 pIC50 (converted)

{"molecule": "O=C1CN2CCN(CC2)Cc2cc(ccc2N2CCOCC2)Nc2nccc(n2)-c2ccc(cc2)OCCN1 [Compound 9]", "measured.target": "CDK4/CyclinD1 (h) (Homo sapiens, UniProt P11802)", "IC50": "7.94 µM"}
{"molecule": "O=C1CN2CCN(CC2)Cc2cccc(c2)Nc2nccc(n2)-c2ccnc(c2)CCCN1 [Compound 21]", "measured.target": "CDK4/CyclinD1 (h) (Homo sapiens, UniProt P11802)", "IC50": "1.29 µM"}
{"molecule": "O=C1NCc2cccc(c2)-c2ccnc(n2)Nc2ccc(C(=O)N3CCOCC3)c(c2)CN2CCC[C@@H]12 [Compound 26]", "measured.target": "CDK4/CyclinD1 (h) (Homo sapiens, UniProt P11802)", "IC50": "> 10 µM"}
{"molecule": "O=C1NCCNCc2ccc(cc2)-c2ccnc(n2)Nc2ccc(N3CCOCC3)c(c2)CN2CCC[C@@H]12 [Compound 157]", "measured.target": "CDK4/CyclinD1 (h) (Homo sapiens, UniProt P11802)", "IC50": "> 10 µM"}
{"molecule": "O=C1NCCCNCc2ccc(cc2)-c2ccnc(n2)Nc2ccc(N3CCOCC3)c(c2)CN2C[C@H](O)C[C@@H]12 [Compound 169]", "measured.target": "CDK4/CyclinD1 (h) (Homo sapiens, UniProt P11802)", "IC50": "> 10 µM"}
{"molecule": "O=C1NCCCc2cc(ccn2)-c2ccnc(n2)Nc2ccc(N3CCOCC3)c(c2)CN2CCCC12 (stereo not shown) [Compound 48]", "measured.target": "CDK4/CyclinD1 (h) (Homo sapiens, UniProt P11802)", "IC50": "> 10 µM"}
{"molecule": "COc1ccc2cc1CN(C)CCCNC(=O)[C@@H]1CCCN1Cc1cc(NCCc3ccccc3)cc(c1)Nc1nccc-2n1 [Compound 167]", "measured.target": "CDK4/CyclinD1 (h) (Homo sapiens, UniProt P11802)", "IC50": "> 10 µM"}
